targetOrSystem: Dopamine Receptor (dopamine 1 receptor peptides) (Homo sapiens)
Sequence (P21728 with tags, fused parts or gaps): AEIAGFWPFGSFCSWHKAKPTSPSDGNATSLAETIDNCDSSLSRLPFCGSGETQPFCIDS
testDescription: Overall pattern of binding: Dopamine Receptor peptides
reportedProperty: Kd

Qu. Item OC[C@H]1OC(O)[C@H](O)[C@@H](O)[C@@H]1O (stereo partly shown) [Glucose, glucose] : provide Kd
Ans. > 60 µM

====

targetOrSystem: histamine 1 receptor peptide H1HR 77–87 GAVVMPMNILYL (Homo sapiens)
Construct: H1HR 77–87 GAVVMPMNILYL; purchased RS Synthesis (Louisville, KY, USA); host or cells: chemical synthesis
testDescription: biochemical
Assay type: binding
conditionInfo: read-out: Kd (µM) H1HR 77–87 […]
reportedProperty: Kd (µM)
Please state the figure in µM; there is no need to write the unit.

Qu. Consider the compound O=C1OC(C(O)CO)C(=O)C1=O (stereo not shown) [Dehydro Asc, dehydroascorbic acid] and give its recorded Kd.
Ans. 35

Source listed as paper PMC7504417.
